measured-on: IP6K1 (Homo sapiens (Human))
Sequence (Q92551 whole entry): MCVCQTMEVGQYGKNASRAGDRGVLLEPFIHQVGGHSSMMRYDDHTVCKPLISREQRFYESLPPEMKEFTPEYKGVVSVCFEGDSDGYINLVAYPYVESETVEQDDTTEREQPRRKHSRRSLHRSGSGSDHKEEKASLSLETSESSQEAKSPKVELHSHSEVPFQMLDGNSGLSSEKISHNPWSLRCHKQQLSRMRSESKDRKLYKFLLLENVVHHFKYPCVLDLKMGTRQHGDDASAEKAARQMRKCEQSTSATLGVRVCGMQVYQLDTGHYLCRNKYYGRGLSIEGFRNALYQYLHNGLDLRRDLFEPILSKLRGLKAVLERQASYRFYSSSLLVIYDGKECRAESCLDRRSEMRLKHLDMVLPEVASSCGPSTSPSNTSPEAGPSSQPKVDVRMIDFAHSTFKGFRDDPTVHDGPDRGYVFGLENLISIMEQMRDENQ
protocol-text: Enzyme-coupled assay of IP6K1 activity (Dipp1-coupled, malachite green Pi release)
Type: biochemical
test-settings: enzyme-coupled assay; Table 1
measurement-type: IC50

compound="O=C(O)/C=C/c1ccc2noc(-c3ccccc3)c2c1 [Compound 10]" measurement_type=IC50 endpoint_result="0.1 to 1 µM"
compound="Cc1cc(C)cc(-c2onc3ccc([C@@H]4C[C@H]4C(=O)O)cc23)c1 [Compound 17]" measurement_type=IC50 endpoint_result="0.01 to 0.1 µM"
compound="CCOC(=O)/C=C/c1ccc2noc(-c3ccccc3)c2c1 [Compound 7]" measurement_type=IC50 endpoint_result="1 to 100 µM"
compound="Cc1cc(C)cc(-c2onc3ccc(/C=C/C(=O)O)cc23)c1 [Compound 11]" measurement_type=IC50 endpoint_result="0.1 to 1 µM"
compound="COc1ccc(-c2onc3ccc(/C=C/C(=O)O)cc23)cc1 [Compound 13]" measurement_type=IC50 endpoint_result="0.1 to 1 µM"
